- RUN_DESCRIPTION: qHTS assay to test for compound auto fluorescence at 590 nm (red) in HEK293 cells (AID 720679); further: on the % scale 0 is the no-effect control and ±100 the full control effect
- CONDITION_PARAMETERS: red autofluorescence 540/590 nm; series mostly up to 91.3 µM
Activity calls are given as the source filed them. The call rests on the fitted dose curve; in most records, active means well fitted curve in the direction sought with a large enough effect in the repeat runs; inconclusive means weak or mixed curves; inactive means flat fitted curve, though single readings scatter.
VALUE_TYPE: fluorescence, % of fluorescent control

Examples from the recorded data:
compound=CCN(CC)c1c([N+](=O)[O-])cc(C(F)(F)F)c(N)c1[N+](=O)[O-] recorded_value=inactive
compound=Oc1ccc(C(=C(Cl)Cl)c2ccc(O)cc2)cc1 recorded_value=inactive
compound=N#CSCSC#N recorded_value=inactive
compound=Oc1cc(Cl)c(Cl)c(Cl)c1 recorded_value=inactive
compound=Nc1ccc(Cc2ccc(N)c(Cl)c2)cc1Cl recorded_value=inactive

get_value(item= ClC(Cl)=C(c1ccc(Cl)cc1)c1ccc(Cl)cc1 , readout=fluorescence, % of fluorescent control) returns inactive

get_value(item= CC(C)CCCCCOC(=O)c1ccccc1C(=O)OCCCCCC(C)C , readout=fluorescence, % of fluorescent control) returns inactive

get_value(item= CCCCCCCCCCCCCCCCCCn1cc[n+](C)c1 , readout=fluorescence, % of fluorescent control) returns inactive

get_value(item= BrC(Br)C(Br)(Br)Br , readout=fluorescence, % of fluorescent control) returns inactive

get_value(item= CC(=O)OC1(c2ccccc2)CCN(CCc2ccccc2)CC1 , readout=fluorescence, % of fluorescent control) returns inactive

get_value(item= O=c1oc2ccccc2c(O)c1Cc1c(O)c2ccccc2oc1=O , readout=fluorescence, % of fluorescent control) returns -0.0848% [at 18.6 µM] (inactive)

get_value(item= CCOP(=O)(NC(C)C)Oc1ccc(SC)c(C)c1 (stereo not drawn) , readout=fluorescence, % of fluorescent control) returns inactive

get_value(item= CC(C)CCCCCCCOP(=O)(Oc1ccccc1)Oc1ccccc1 , readout=fluorescence, % of fluorescent control) returns inactive

---

- RUN_DESCRIPTION: qHTS assay to identify small molecule antagonists of the TGF-beta/Smad signaling pathway - cell viability counter screen (AID 1346824); further: nearly all actives have a fitted effect of over 50% in size
- CONDITION_PARAMETERS: SBE-bla HEK293T viability, CellTiter-Glo luminescence; series mostly up to 76.8 µM
Records with an inconclusive call do not appear. The source made the active and inactive calls. Calls follow the shape of the dose curve; as a rule, active = well fitted cell-killing curve with a large enough effect in the repeat runs; inconclusive = weak or mixed curves; inactive = flat fitted curve, though single readings scatter.
// classify into active, inactive

compound=N#Cc1ccccc1Cl assigned_class=inactive
compound=ClCCN1CCOCC1 assigned_class=inactive
compound=C[C@@H](Oc1ccc(Cl)cc1Cl)C(=O)O assigned_class=inactive

Task: How did this test come out for CC(=[OH+])/C=C(/C)[O-].CC(=[OH+])/C=C(\C)[O-].CC(=[OH+])/C=C(\C)[O-].[Fe] ?
Output: inactive

Task: How did this test come out for O=[N+]([O-])c1ccc(Oc2ccc(C(F)(F)F)cc2[N+](=O)[O-])cc1 ?
Output: inactive

Task: How did this test come out for C1CCC2CCCCC2C1 (configuration not stated) ?
Output: inactive

Task: How did this test come out for Clc1ccc(C(c2ccc(Cl)cc2)C(Cl)(Cl)Cl)cc1 ?
Output: inactive

Task: How did this test come out for O=c1c(C2CC(c3ccc(-c4ccc(Br)cc4)cc3)Cc3ccccc32)c(O)sc2ccccc12 (configuration not stated) ?
Output: inactive

Task: How did this test come out for CCc1nn(C)c(C(=O)NCc2ccc(C(C)(C)C)cc2)c1Cl ?
Output: active

Task: How did this test come out for Cc1cc(Cl)ccc1O[C@H](C)C(=O)O ?
Output: inactive

Task: How did this test come out for CC(C)(C)C(O)/C(=C\c1ccc(Cl)cc1Cl)n1cncn1 (configuration not stated) ?
Output: inactive

Task: How did this test come out for Cc1ccc(C(=O)Cl)cc1 ?
Output: inactive

---

- RUN_DESCRIPTION: A CellTox Green Cytotoxicity Assay to monitor cytotoxicity in HEK293 cells - 32 hour (AID 1224881); further: nearly all actives have a fitted effect of over 40% in size
- CONDITION_PARAMETERS: CellTox Green fluorescence; series mostly up to 76.8 µM
Results filed as inconclusive are left out. Activity calls are given as the source filed them. Calls follow the shape of the dose curve; as a rule, active = well fitted activation curve with a large enough effect in the repeat runs; inconclusive = weak or mixed curves; inactive = flat fitted curve, though single readings scatter.
// classify into active, inactive

compound="CCOC(=O)OC1=C(c2cc(C)ccc2C)C(=O)NC12CCC(OC)CC2 (stereo not given)" assigned_class=inactive
compound=[Cl][Sn]([c]1ccccc1)([c]1ccccc1)[c]1ccccc1 assigned_class=active
compound="CC(C)(C)C(O)C(Oc1ccc(-c2ccccc2)cc1)n1cncn1 (stereo not given)" assigned_class=inactive
compound=Cc1cc(Cl)ccc1O[C@H](C)C(=O)O assigned_class=inactive
compound=CC(C)OC(=O)C(O)(c1ccc(Cl)cc1)c1ccc(Cl)cc1 assigned_class=active
compound="CC(C)CC(C)Nc1ccc(Nc2ccccc2)cc1 (stereo not given)" assigned_class=active
compound=COP(=O)(OC)SCn1c(=O)oc2cc(Cl)cnc21 assigned_class=inactive
compound=O=C(CCl)C(Cl)Cl assigned_class=active

Task: How did this test come out for ClC1=C(Cl)[C@]2(Cl)[C@@H]3[C@@H](Cl)[C@@H](Cl)C[C@@H]3[C@@]1(Cl)C2(Cl)Cl ?
Output: inactive

Task: How did this test come out for COc1cc(C=O)cc2c1[C@H](COC(N)=O)[C@]1(OC(C)=O)ON2C[C@H]2[C@@H]1N2C(C)=O ?
Output: inactive

Task: How did this test come out for SCc1ccco1 ?
Output: inactive

Task: How did this test come out for Oc1ccc(C2(c3ccc(O)cc3)c3ccccc3-c3ccccc32)cc1 ?
Output: inactive

Task: How did this test come out for Oc1ccccc1Br ?
Output: inactive

Task: How did this test come out for Nc1c(Oc2ccccc2)cc(O)c2c1C(=O)c1ccccc1C2=O ?
Output: inactive

Task: How did this test come out for CCC(C)c1cc([N+](=O)[O-])cc([N+](=O)[O-])c1OC(=O)C=C(C)C (stereo not given) ?
Output: inactive

Task: How did this test come out for NNC(=O)c1ccccc1 ?
Output: inactive

---

- RUN_DESCRIPTION: qHTS assay to identify aromatase inhibitors - cell viability counter screen (AID 743084);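 further: cells stimulated with testosterone during compound exposure; nearly all actives have a fitted effect of over 55% in size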; further: potency means the concentration at half of the fitted maximal effect
- CONDITION_PARAMETERS: MCF-7 aro ERE viability, CellTiter-Fluor, 24 h; series mostly up to 70.3 µM
Inconclusive results are not listed. Activity calls are given as the source filed them. Calls come from the whole dose curve; as a rule, active = well fitted cell-killing curve with a large enough effect in the repeat runs; inconclusive = weak or mixed curves, or effect the other way; inactive = no such curve, though single readings can be large or run the other way.
VALUE_TYPE: Potency

Examples from the recorded data:
molecule=CN(C)S(=O)(=O)N(SC(F)(Cl)Cl)c1ccccc1 value_type=Potency recorded_value="27.3 µM (active)"
molecule="CCCN(CC)CC1COC2(CCC(C(C)(C)C)CC2)O1 (configuration not stated)" value_type=Potency recorded_value=inactive
molecule="Clc1ccc(CSC(Cn2ccnc2)c2ccc(Cl)cc2Cl)cc1 (configuration not stated)" value_type=Potency recorded_value=inactive
molecule=CC(C)(C)c1cc([N+](=O)[O-])cc(C(C)(C)C)c1O value_type=Potency recorded_value="21.7 µM (active)"
molecule=CN(C)C(=S)[S-].CN(C)C(=S)[S-].[Cu+2] value_type=Potency recorded_value="1.87 µM (active)"
molecule=Oc1c(Cl)c(Cl)cc(Cl)c1Cl value_type=Potency recorded_value=inactive

get_value(item= BrC(Br)Br , readout=Potency) returns inactive

get_value(item= O=c1[nH]c2ccccc2n1CCCN1CCC(n2c(=O)[nH]c3cc(Cl)ccc32)CC1 , readout=Potency) returns inactive

get_value(item= O=c1[nH]c2ccccc2n1C1CCN(CCCC(c2ccc(F)cc2)c2ccc(F)cc2)CC1 , readout=Potency) returns 54.5 µM (active)

get_value(item= Clc1ccc(CO/N=C(\Cn2ccnc2)c2ccc(Cl)cc2Cl)c(Cl)c1 , readout=Potency) returns inactive

get_value(item= C[C@]12CC[C@@H]3c4ccc(OC(=O)N(CCCl)CCCl)cc4CC[C@H]3[C@@H]1CC[C@@H]2O , readout=Potency) returns inactive

get_value(item= CCOC(=O)CC(=O)CCl , readout=Potency) returns 30.6 µM (active)

---

- RUN_DESCRIPTION: Caspase-3/7 induction in CHO-K1 cells by small molecules, qHTS cell viability counter screen (AID 1346979); further: nearly all actives have a fitted effect of over 35% in size
- CONDITION_PARAMETERS: CellTiter-Fluor fluorescence, 17 h; series mostly up to 92.4 µM
Inconclusive results are not listed. The source made the active and inactive calls. Calls come from the whole dose curve; as a rule, active = well fitted cell-killing curve with a large enough effect in the repeat runs; inconclusive = weak or mixed curves, or effect the other way; inactive = no such curve, though single readings can be large or run the other way.
// classify into active, inactive

Consider the worked cases shown below.
molecule=C[C@H]1O[C@@H](O[C@H]2[C@@H](O)C[C@H](O[C@H]3[C@@H](O)C[C@H](O[C@H]4CC[C@@]5(C)[C@H](CC[C@@H]6[C@@H]5CC[C@]5(C)[C@@H](C7=CC(=O)OC7)CC[C@]65O)C4)O[C@@H]3C)O[C@@H]2C)C[C@H](O)[C@@H]1O assigned_class=inactive
molecule=Cc1ccc(OP(=O)(Oc2ccccc2)Oc2ccccc2)cc1 assigned_class=inactive
molecule=CN(C)c1ccc(N=Nc2ccccc2)cc1 assigned_class=active
molecule="BrCC(Br)c1ccccc1 (centres undefined)" assigned_class=inactive

Task: How did this test come out for [CH3][Hg][Cl] ?
Output: active

Task: How did this test come out for CCS(=O)(=O)c1cccnc1S(=O)(=O)NC(=O)Nc1nc(OC)cc(OC)n1 ?
Output: inactive

Task: How did this test come out for COP(=O)(CCC(=O)NCO)OC ?
Output: inactive

Task: How did this test come out for C[C@]12CC[C@H]3[C@@H](CCC4=CC(=O)CC[C@@]43C)[C@@H]1CC[C@@H]2O ?
Output: inactive
